measurement-target: P. falciparum apicoplast DNA polymerase (Pf-apPOL) (Plasmodium falciparum)
protocol-summary: Fluorescence-based high-throughput DNA polymerase assay (molecular beacon), primary screen and dose-response
Type: biochemical
measurement-conditions: primary screen value by plate and well; 90 min, 10 µM
So basically: DNA Pol at 50 or higher? That is rule met. Lower than 50? That is rule not met.

compound	category-label
COCC(=O)Nc1c(-c2cccc(F)c2)nc2cc(C)ccn12 [Molecule 44, COCC(=O)Nc1c(nc2n1ccc(c2)C)c1cccc(c1)F]	rule not met
O=C(Nc1cccc(Cl)c1)Nc1nnc(-c2ccncc2)s1 [KU0022348]	rule met
CCCCCCCCCCCC1SCC(C(=O)O)N1C(C)=O (stereo not shown) [Molecule 72]	rule met
COc1ccc(-c2cc(=O)c3cc(O)ccc3o2)cc1OC [KU0193655]	rule not met
COc1ccc(C=C2Oc3c(ccc4c3CN(c3ccc5c(c3)OCO5)CO4)C2=O)cc1OC [KU0199426]	rule not met
Cc1cc(C)c(O)c(/N=C/c2cc([N+](=O)[O-])cc(Br)c2O)c1 [KU0046272]	rule not met
COc1ccc(NC(=O)Cn2ccc3c(=O)[nH]ccc32)cc1 [Molecule 13, COc1ccc(cc1)NC(=O)Cn1ccc2c1cc[nH]c2=O]	rule met
O=C(NCC1CCN(C2CCCC2)CC1)C(=O)NC1CCCC1 [KU0199596]	rule not met
Cc1cc(C)cc(-n2nc3c(c2NC(=O)c2ccco2)CSC3)c1 [KU0055926]	rule met
COc1ccc(NC(=O)Cn2ccc3c(=O)[nH]ccc32)cc1Cl [Molecule 10, COc1ccc(cc1Cl)NC(=O)Cn1ccc2c1cc[nH]c2=O]	rule met
COc1cc(Cl)c(C)cc1NC(=O)Cn1ccc2c(=O)[nH]ccc21 [Molecule 33]	rule not met
O=C1NCCCn2cc(S(=O)(=O)Nc3ccccc3)cc21 [KU0214835]	rule not met

---

Listing of entries alongside the reported % inhibition apPOL 180'.
measurement-target: P. falciparum apicoplast DNA polymerase (Pf-apPOL) (Plasmodium falciparum, UniProt Q8ILY1)
Sequence (Q8ILY1 entry or part of it): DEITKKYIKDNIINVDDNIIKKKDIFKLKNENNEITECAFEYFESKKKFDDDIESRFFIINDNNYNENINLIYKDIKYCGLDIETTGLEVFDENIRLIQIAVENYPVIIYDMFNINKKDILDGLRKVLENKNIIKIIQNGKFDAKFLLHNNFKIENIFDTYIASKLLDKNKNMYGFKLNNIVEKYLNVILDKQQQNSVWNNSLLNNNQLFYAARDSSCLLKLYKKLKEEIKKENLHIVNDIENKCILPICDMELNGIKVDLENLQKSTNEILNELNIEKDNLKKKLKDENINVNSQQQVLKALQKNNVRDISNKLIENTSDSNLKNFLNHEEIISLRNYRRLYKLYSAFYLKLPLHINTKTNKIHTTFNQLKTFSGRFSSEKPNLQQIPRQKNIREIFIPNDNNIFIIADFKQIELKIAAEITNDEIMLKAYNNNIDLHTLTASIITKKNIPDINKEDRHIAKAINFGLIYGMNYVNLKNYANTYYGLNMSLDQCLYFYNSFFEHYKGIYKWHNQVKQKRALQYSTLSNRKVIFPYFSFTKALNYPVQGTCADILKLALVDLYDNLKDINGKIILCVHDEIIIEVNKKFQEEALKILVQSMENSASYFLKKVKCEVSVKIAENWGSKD
protocol-summary: Fluorescence-based high-throughput DNA polymerase assay (molecular beacon), primary screen and dose-response;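 on % inhibition apPOL 180': test concentration in µM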
Format: biochemical
measurement-conditions: DRC-1; 180'; concentration 2.5

compound	% inhibition apPOL 180', %
CCOC(=O)C(NCc1ccco1)(NC(=O)c1ccco1)C(F)(F)F (stereo not shown)	-2.149
CN(C)S(=O)(=O)Oc1ccc(-c2noc(-c3ccc(Oc4cc(Cl)cc(Cl)c4)o3)n2)cc1	0.6453
O=C(Cn1ccc2c(=O)[nH]ccc21)Nc1ccc(Cl)cc1 [Molecule 36, O=C(Cn1ccc2c1cc[nH]c2=O)Nc1ccc(cc1)Cl]	-6.005
Cc1ccc(C)n1-c1ccc(C(=O)NNC(=O)c2ccc3nccnc3c2)cc1	-5.424

---

Listing of entries alongside the reported % inhibition apPOL 180'.
measurement-target: P. falciparum apicoplast DNA polymerase (Pf-apPOL) (Plasmodium falciparum)
protocol-summary: Fluorescence-based high-throughput DNA polymerase assay (molecular beacon), primary screen and dose-response
Format: biochemical
measurement-conditions: DRC-2; 180'; concentration 40

compound	% inhibition apPOL 180' / %
N#CC(C#N)=C1SCN(c2cccc(Cl)c2)CS1 [Molecule 29, N#CC(=C1SCN(CS1)c1cccc(c1)Cl)C#N]	73
Cc1cc(C)cc(-n2nc3c(c2NC(=O)c2ccco2)CSC3)c1 [KU0055926]	68
Cc1cccc2c(C(=O)NC(C)C)cc(N(C)C)nc12 [Molecule 47, CC(NC(=O)c1cc(nc2c1cccc2C)N(C)C)C]	60
O=C(Cn1ccc2c(=O)[nH]ccc21)Nc1ccccc1Cl [Molecule 19, O=C(Cn1ccc2c1cc[nH]c2=O)Nc1ccccc1Cl]	77

---

measurement-target: bacteriophage T4 DNA polymerase (Enterobacteria phage T4, UniProt P04415)
Construct: made in house
Sequence (P04415 whole entry): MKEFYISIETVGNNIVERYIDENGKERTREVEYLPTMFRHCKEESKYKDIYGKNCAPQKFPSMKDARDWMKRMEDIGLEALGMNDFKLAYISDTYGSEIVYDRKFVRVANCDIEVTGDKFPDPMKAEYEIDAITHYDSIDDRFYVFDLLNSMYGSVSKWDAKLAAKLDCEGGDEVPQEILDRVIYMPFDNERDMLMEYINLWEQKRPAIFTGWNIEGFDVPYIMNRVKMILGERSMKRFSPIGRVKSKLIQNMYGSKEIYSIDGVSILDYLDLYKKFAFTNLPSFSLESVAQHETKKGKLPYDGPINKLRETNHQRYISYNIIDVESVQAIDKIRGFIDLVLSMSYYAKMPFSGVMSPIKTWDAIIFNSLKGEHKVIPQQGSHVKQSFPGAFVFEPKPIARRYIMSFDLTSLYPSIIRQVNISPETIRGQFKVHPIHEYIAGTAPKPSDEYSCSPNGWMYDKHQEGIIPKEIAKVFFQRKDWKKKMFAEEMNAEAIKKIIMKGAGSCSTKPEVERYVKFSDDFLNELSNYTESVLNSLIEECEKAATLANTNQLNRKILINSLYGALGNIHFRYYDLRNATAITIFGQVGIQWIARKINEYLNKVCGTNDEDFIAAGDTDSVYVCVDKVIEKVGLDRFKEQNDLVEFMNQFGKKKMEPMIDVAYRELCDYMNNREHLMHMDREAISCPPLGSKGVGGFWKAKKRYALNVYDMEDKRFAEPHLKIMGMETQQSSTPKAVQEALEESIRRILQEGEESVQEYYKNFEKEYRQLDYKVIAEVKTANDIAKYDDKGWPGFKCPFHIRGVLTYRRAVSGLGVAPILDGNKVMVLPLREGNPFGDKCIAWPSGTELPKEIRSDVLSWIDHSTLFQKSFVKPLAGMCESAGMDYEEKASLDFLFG
protocol-summary: Counter-screen against bacteriophage T4 DNA polymerase
Assay type: biochemical
measurement-conditions: DRC-1; read at 10'; concentration 2.5

compound	measurement-target	% inhibition T4 10' 2.5 / %
COc1ccc(/C=C/c2cc(C(=O)O)c3ccccc3n2)cc1 [Molecule 5, COc1ccc(cc1)/C=C/c1nc2ccccc2c(c1)C(=O)O]	bacteriophage T4 DNA polymerase (Enterobacteria phage T4, UniProt P04415)	1.081
Cn1nc(-c2nnc(-c3ccccc3F)o2)c2c1CCN(C(=O)c1ccccc1Cl)C2 [Molecule 34]	bacteriophage T4 DNA polymerase (Enterobacteria phage T4, UniProt P04415)	-0.603
CC(C)CC(C(=O)O)N1C(=O)C2C3C=CC(C2C1=O)C1C(=O)N(C(CC(C)C)C(=O)O)C(=O)C31 (stereo not shown) [KU0193449]	bacteriophage T4 DNA polymerase (Enterobacteria phage T4, UniProt P04415)	3.278
CC(=O)Nc1cc(C(=O)c2cccs2)nn(-c2ccc(Cl)cc2)c1=O [KU0267905]	bacteriophage T4 DNA polymerase (Enterobacteria phage T4, UniProt P04415)	-2.1822
Cc1ccsc1Cn1c(C)ccc1C [Molecule 70, Cc1ccsc1Cn1c(C)ccc1C]	bacteriophage T4 DNA polymerase (Enterobacteria phage T4, UniProt P04415)	-4.493
Cn1nc(-c2nc(-c3ccccc3)no2)c2c1CCN(C(=O)Cc1cccs1)C2 [Molecule 58]	bacteriophage T4 DNA polymerase (Enterobacteria phage T4, UniProt P04415)	2
N#Cc1c(O)nc(N2CCCCC2)nc1-c1ccc2c(c1)OCO2 [KU0083146]	bacteriophage T4 DNA polymerase (Enterobacteria phage T4, UniProt P04415)	-1.681
CC(=O)OCC1=C(C(=O)[O-])N2C(=O)[C@@H](NC(=O)Cc3cccs3)[C@H]2SC1.[Na+] [Molecule 73]	bacteriophage T4 DNA polymerase (Enterobacteria phage T4, UniProt P04415)	11.7205
Nc1cc(Oc2ccc(O)c(N)c2)ccc1O [KU0034728]	bacteriophage T4 DNA polymerase (Enterobacteria phage T4, UniProt P04415)	10.6184
O=C1CSC2=NC3=C(CCc4ccccc43)C(c3cccs3)N12 (stereo not shown) [Molecule 59, O=C1CSC2=NC3=C(C(N12)c1cccs1)CCc1c3cccc1]	bacteriophage T4 DNA polymerase (Enterobacteria phage T4, UniProt P04415)	10.0127

---

measurement-target: P. falciparum apicoplast DNA polymerase (Pf-apPOL) (Plasmodium falciparum, UniProt Q8ILY1)
protocol-summary: Fluorescence-based high-throughput DNA polymerase assay (molecular beacon), primary screen and dose-response
Assay type: biochemical
measurement-conditions: DRC-1; 10'; concentration 10
Listing of entries alongside the reported % inhibition Apo pol 10'.
readout: % inhibition Apo pol 10' (%)

item-smiles	readout	unit-text	val
Oc1cccc2ccc(/C=C/c3ccc4c(c3)OCO4)nc12	% inhibition Apo pol 10'	%	38.8453
O=c1cc(-c2ccccc2Cl)oc2c(NS(=O)(=O)c3cc(Cl)cc(Cl)c3O)ccc(O)c12	% inhibition Apo pol 10'	%	7.439
NS(=O)(=O)c1ccc(NC(=O)c2ccc(N3C(=O)CCC3=O)cc2)cc1	% inhibition Apo pol 10'	%	35.7836
O=C(O)c1cccc(N2N=C(C(F)(F)F)/C(=C/c3ccc(-c4ccccc4[N+](=O)[O-])o3)C2=O)c1	% inhibition Apo pol 10'	%	67.0777

---

measurement-target: P. falciparum apicoplast DNA polymerase (Pf-apPOL) (Plasmodium falciparum, UniProt Q8ILY1)
protocol-summary: Fluorescence-based high-throughput DNA polymerase assay (molecular beacon), primary screen and dose-response
Assay type: biochemical
measurement-conditions: DRC-2; 5'; concentration 2.5

molecule	% inhibition Apo pol 5', %
CCCCC(=O)N1CCc2c(nc3cc(-c4ccccc4Cl)[nH]n3c2=O)C1 [Molecule 37]	11
O=C(Nc1cccc(Cl)c1)Nc1nnc(-c2ccncc2)s1 [KU0022348]	16
O=C(c1c[nH]c2ncccc12)N1CCCC1 [Molecule 63, O=C(c1c[nH]c2c1cccn2)N1CCCC1]	3
CCN1C(=O)C(=Cc2cccc(OC)c2O)SC1=S [Molecule 78, CCN1C(=S)SC(=Cc2cccc(c2O)OC)C1=O]	8
CC(=O)c1cc2c(N)c(/C(N)=N/C#N)sc2nc1C [KU0015866]	7
CC(C)(C)c1cc(C(=O)C(C#N)=NNc2cccc(Cl)c2)no1 [Molecule 98]	8
Cc1ccc(CCNC(=O)c2cnn3c(O)c(Cc4ccccc4F)c(C)nc23)cc1 [KU0097142]	-3.79
Cc1cc(C)c2c(c1)C1C=CCC1C(c1ccc(C(=O)O)cc1)N2 (centres unmarked) [Molecule 102]	40
CC(C)(C)OC(=O)COc1ccc2cc(-c3ccccc3)c(=O)oc2c1 [Molecule 81]	8
COCC(=O)Nc1c(-c2cccc(F)c2)nc2cc(C)ccn12 [Molecule 44, COCC(=O)Nc1c(nc2n1ccc(c2)C)c1cccc(c1)F]	10
O=C(NC(C(Cl)Cl)S(=O)(=O)c1ccccc1)c1ccccc1 (centres unmarked) [KU0045239]	4
O=C(NNC(=O)c1ccc(Cl)cc1)C(=O)NNC(=O)c1ccc(Cl)cc1 [Molecule 25]	2.6
O=C(CSc1nnc(-c2ccncc2)[nH]1)c1ccc(O)c(O)c1 [Molecule 89]	47
CCCc1ccc(Oc2coc3cc(OC)ccc3c2=O)cc1 [KU0193249]	8
N#Cc1c(O)nc(N2CCCCC2)nc1-c1ccc2c(c1)OCO2 [KU0083146]	13
CN(C)S(=O)(=O)Oc1ccc(-c2noc(-c3ccc(Oc4cc(Cl)cc(Cl)c4)o3)n2)cc1 [KU0263859]	2.6
CCOC(=O)C(NCc1ccco1)(NC(=O)c1ccco1)C(F)(F)F (centres unmarked) [KU0276119]	3
CCC(C)NC(=O)c1cc(NC(C)=O)cc2nc(C)ccc12 (centres unmarked) [KU0206314]	10
CCCCCCCCCCCCCCCCCC(=O)CCN(C)C [KU0271928]	0.736
O=C(Cc1cc(=O)[nH]c(SCc2ccccc2)n1)Nc1ccc2c(c1)OCO2 [Molecule 46]	-0.743
